Exercise: for every item that follows, state its recorded folding stability dG unfold.
assay: folding stability dG unfold from trypsin proteolysis; higher = more stable
Provide only the numeric value, understood in kcal/mol.

Short answer for SAGKEVIVITVEELEKLLKALKPGEKVKIVVINKDGKKVTFTAEVKDGKVEIKEAEKDIKPGDKIFIEKSAG [r5_85_TrROS_Hall] : folding stability dG unfold was 1.85

Short answer for SAMTIEITVPPGMSVEELAKLLKELFPEVEEIKIEVEYDEETKELKVRIEIRPKPELSEEEKEALEKLKSAG [r14_645_TrROS_Hall] : folding stability dG unfold was 2.9

Short answer for SAGGSASVTTTVTLPNGEVVTITFDPANPTTATLSFPDGTTVTLSFSSPEEALARAIEELLAGKPLSAGGSA [r15_38_JUSTAS] : folding stability dG unfold was 2.99

* * *

Exercise: for every item that follows, state its recorded folding stability dG unfold.
assay: folding stability dG unfold (combined trypsin and chymotrypsin); higher = more stable
Provide only the numeric value, understood in kcal/mol.

Short answer for SAGGSAGGSAMKLKVPTKDGKVYEVTVVDYDPENEKVVVKNPDTDELYTFSLEDFKKILEANSAGGSAGGSA [r18_161_TrMRF] : folding stability dG unfold was 3.36

Short answer for SAGGSAGGMVRFDPAGGRLFLDGVPVELSEVLSVESLEEEGRVRVEALLVDGSRLEFEIPKEALSAGGSAGG [r6_682_JUSTAS] : folding stability dG unfold was 2.13

Short answer for SAGGSAGGSAGSMFMIMIEYDPPGYIKVSINRYKMGPDGDFEPVEPETHEIPIPPGQPFFSAGGSAGGSAGG [r11_440_TrROS] : folding stability dG unfold was 2.3

Short answer for SAGGSAGGSAGGSKKKKKKPKKVLLVRNKKTKKLYVFKTKEEAKKAGFEIVKDGKIKKKSAGGSAGGSAGGS [r4_306_TrROS_Hall] : folding stability dG unfold was 0.0938

Short answer for SAGGSAGGSAGMTLTVTSPSSDTPIGTIELPSSLSEEELEAAVEAVRAALPPDVTVEVTGSAGGSAGGSAGG [r11_1081_JUSTAS] : folding stability dG unfold was 1.13

Short answer for SPIVKVRLRIELPDGKVLELELDVPLPLIKEALSKLIGEKYKVKIVKIDPIDPEKLKPGSTIEITLKAEPSA [r9_803_TrMRF] : folding stability dG unfold was 4.59

* * *

test: folding stability dG unfold (combined trypsin and chymotrypsin); higher = more stable
Tag: met if measured folding stability dG unfold is not below 2 kcal/mol, not met if it is.

Is folding stability dG unfold for SSTPKLEEIERPNARFKVTTYTYPNSVKTTADATFPDGTKGKIEETYTPTPEGVKKTVKKDLPPEVKEKLES [r1_153_JUSTAS] at or above 2 kcal/mol?
not met

Is folding stability dG unfold for SAGGKEIEELAKKLAEELGVEVVKVEVEKVGPDTVKVTVTLKDGKKIKIEIKKKKDGSYEIKVEIEPSAGGS [r8_284_TrROS_Hall] at or above 2 kcal/mol?
met

Is folding stability dG unfold for SAGGSAGGSGSSSLLEETTDASGVRHLLTLVRLPGGKVLLVTTTVYPSGESTTTTEETDGSLLSAGGSAGGS [r12_995_JUSTAS] at or above 2 kcal/mol?
met

Is folding stability dG unfold for SPNFRISPEIKNAIKRALKENEPGKKVEIRMRYPDGPTIMISIDKPGSINIEVEPDPGKPIMEFEFDIKDSA [r9_132_TrROS] at or above 2 kcal/mol?
not met

Is folding stability dG unfold for SAGPYVMIRIKWPGGEELSIPIPGAKITDVERDGDHITFMFDSPPAAEDIKEEIEDHFPGLKIEIQPIDSAG [r5_453_TrROS] at or above 2 kcal/mol?
not met

Is folding stability dG unfold for SAGSKVPVTATATFSDKAELEKTVADIKAKTGYDIEVTYDPNSNSYTITVNTTDEVVKMLKEKGFKLESAGG [r19_306_JUSTAS] at or above 2 kcal/mol?
met

Is folding stability dG unfold for SLTAEEAAANPELAARLLALPPVPPFPVELLFVNPETRAVLPAKATVYQFPNTWLVLFPENGAALPVPGGSA [r9_548_TrMRF] at or above 2 kcal/mol?
not met

Is folding stability dG unfold for SAGMLTYRFTVPAEEAEEAAEELAETLRRELGLPEEVKVEVKVVEYDPETGLVTVEAVVYRPLPEGVEPSAG [r5_537_TrMRF] at or above 2 kcal/mol?
met

Is folding stability dG unfold for SAGGGSLEKIREAGKKGYLVRIELETGERRVIPIEDLIRDPRFGPDVPLAELRVRRIELLPPDDGLPLSAGG [r13_587_TrMRF] at or above 2 kcal/mol?
not met

Is folding stability dG unfold for SAGGSAGGSSGTVTLRLRFRVVDLDPATGEASEHEFELTLTVPIELPAAAPPATPTYGLTLPGSAGGSAGGS [r12_140_TrMRF] at or above 2 kcal/mol?
met

Is folding stability dG unfold for SAGGSAVSISTVTSTSFPGSGTSVKTYETPDFTVTVTTTRDPNGADTVEIHTDDPEAEKTVREYLASAGGSA [r15_42_JUSTAS] at or above 2 kcal/mol?
not met

Is folding stability dG unfold for SAGGSAGGSAGNVEEIADQLKPNGYKISTVEPTDDQVEVEIYNPESKEPRKFRIPPNQPISAGGSAGGSAGG [r11_428_TrROS] at or above 2 kcal/mol?
not met

Is folding stability dG unfold for SAGKIKIEVEYLDPNGDWRRYEHTIPFKPNQSFEEAINELLPPGLREIKITEVDPEEGTIKIDIWIRPDSAG [r5_227_TrROS] at or above 2 kcal/mol?
met

Is folding stability dG unfold for SAMKFKKGAKIEIEVEKVEEKEIDGKTVAVYRMKIKIEVDGKKYEIEVEIYYDKETKEWKIVKVEIKEVSAG [r14_293_TrROS_Hall] at or above 2 kcal/mol?
met

Is folding stability dG unfold for SAGGMPIYARIVLYPPETGKFSELEIEFPEFESPDEVVEAAKEIAEKLGGPIARIEIYDPKTGKPFPDSAGG [r13_771_TrMRF] at or above 2 kcal/mol?
not met

Is folding stability dG unfold for SAGGSAGGSAGGPPYEVNIYIKFRPPDGKPPTFPIDVNVNDPEDAKDELEDNFPNMEIVSAGGSAGGSAGGS [r10_1248_TrROS] at or above 2 kcal/mol?
not met
